Consider the following IC50 data for Glycogen synthase kinase-3 beta (Homo sapiens, UniProt P49841), collected from several reports.

molecule	value_observed
O=[N+]([O-])c1ccc(NCCNc2nccc(NCc3ccc(Cl)cc3Cl)n2)nc1	≤ 10 µM
CN1CCN(c2cnc(NCCNc3ccc([N+](=O)[O-])c(N)n3)nc2-c2ccc(Cl)cc2Cl)CC1	≤ 1 µM
COc1cccc(C(=O)c2c[nH]c3ncc(-c4cccc(NC(C)=O)c4)cc23)c1F	≤ 10 µM
COc1ccccc1-c1cn2nccc(C(=O)Nc3cnccc3N3CCC(F)(F)CC3)c2n1	0.0008 µM
CCOC(=O)c1cnc(NCCNc2ccc([N+](=O)[O-])cc2)nc1-c1ccc(C#N)cc1	≤ 1 µM

Please find the next molecule below.
// IC50 lookup, key: CCOC(=O)c1cnc(NCCNc2ccc([N+](=O)[O-])cn2)nc1-c1ccc(F)cc1
≤ 1 µM
